# Tested on: MS2 coat protein
# assayProcedure: apparent KD of MS2 coat protein; designed switch direction (-1 OFF switch, 1 ON switch): -1; higher = weaker reporter binding
# reportedConditions: input ligand: none
Please mark True if the recorded apparent KD of MS2 coat protein is equal to or greater than 0.04 µM, and False if it falls below.

Examples with answers:
sequenceEntry	assignedClass
GCUGGUCAAGGAUAUACAUGAGGAUCACCCAUGUGGUCACGUGACGAUAGUCACGAAUGUAGAAGGUGACCAGC [E3/3-C1] (Eterna round: R97, puzzle: Exclusion 3)	True
GUUAUACAUGAGGAUCACCCAUGUCAGGAUAUUAUCUAUCUUUGGAAGCAUUGAUCGCUAAGAAGGGACUAGUA [Bubbles2] (Eterna round: R97, puzzle: Exclusion 1)	False
ACAUGAGGAUCACCCAUGUAAUCAUGAUGGCUGAUGUAGAGGUAGGAUAUGAGUGGCUUUCUAUCUCAGAAGGACCAAGACUGG [Deportation 39 - Jieux - Exclusion NG 3] (Eterna round: R96, puzzle: Exclusion NG 3)	False

Task: Confirm if apparent KD of MS2 coat protein reported for the sequence CGAUAAAAGACAGGAUAUGAGGAGAGAGAGAGAUCAGAAGGGUCACAUGAGGAUCACCCAUGUGAGUUCUCGAUAAGAAAGAGG [Prohibition 52 - Jieux - Exclusion NG 1] (Eterna round: R96, puzzle: Exclusion NG 1) is 0.04 µM or above.
Result: False

###

# Tested on: MS2 coat protein
# assayProcedure: apparent KD of MS2 coat protein; designed switch direction (-1 OFF switch, 1 ON switch): -1; higher = weaker reporter binding
# reportedConditions: Eterna round: R95; input ligand: FMN 200 uM
# maps each entry to its apparent KD of MS2 coat protein
Supply the numeric figure in nM, leaving out any unit text.

Solved cases (4 shown):
sequenceEntry	resultType	unitsText	quantitativeResult
GCGUGUGCCUAGGAUAUUGGGAAUAUGCAGAAACGAGAAGGAGGCACAUGAGGAUCACCCAUGUGAUGAAAAGA [Teesedri] (puzzle: Exclusion 6)	apparent KD of MS2 coat protein	nM	16.7
GAAAAGGUAGGAUAUACGAAAAAAAAAGGUAGAAAAAAAACACAUGAGGAUCACCCAUGUAGAAGGACCAAAAG [salish99_ex2_r3_070] (puzzle: Exclusion 2)	apparent KD of MS2 coat protein	nM	37.4
UAUACUAGAUAGGAUAUACUAUAUAAAUAAUUCGUAGAAGGAUCUACAUGAGGAUCACCCAUGUUAACAGCAGU [JR_E6_Sub005] (puzzle: Exclusion 6)	apparent KD of MS2 coat protein	nM	30.7
AUAAUAAAGGAGGAUAUCGUAACGGAAACGUUACGAGAAGGUCUAACAUGAGGAUCACCCAUGUUCCUCAAAUA [Mat - Exclusion 6 - Eli Mod - D50] (puzzle: Exclusion 6)	apparent KD of MS2 coat protein	nM	47.8

Task: # input sequence: CAAAAGCUAGGAUAUCGCAAACAAGACAUGAGGAUCACCCAUGUGUCCAUGGCCGACCUCCGAGAAGGAGCAAUAU [Dieded] (puzzle: Exclusion 5) ; wanted: its apparent KD of MS2 coat protein
Result: 32.5

###

# apparent KD of MS2 coat protein values compiled below
# Test system: MS2 coat protein
# assayProcedure: apparent KD of MS2 coat protein; designed switch direction (-1 OFF switch, 1 ON switch): 1; higher = weaker reporter binding
# reportedConditions: input ligand: FMN 200 uM
Give the number first and the unit second.

Past entries and their recorded results:
sequenceEntry	resultType	result
GCCAUCCAGUGAGGAUAUGGCACCGAAACGGUGCCAGAAGGCAUGUCAAUUGACAUGAGGAUCACCCAUGUAUUAUGGAUGGCA [Mat - Same State NG 1 - JL mod - D85] (Eterna round: R96, puzzle: Same State NG 1)	apparent KD of MS2 coat protein	102 nM
UGGCUCAGAGCAGGAUAUAUGUAAUAACAUGAGGAUCACCCAUGUGUCGAGCUUCGGCUCGACACAUAGAAGGGCUCUGAGCCA [SSNG2/2-B2] (Eterna round: R96, puzzle: Same State NG 2)	apparent KD of MS2 coat protein	13.3 nM
CGGGUGGUUCUAGGAUAUCUAGGAUAUGGACGAGGAUUACCCGAGCAGCAUUAGCGCACCAGAGGAGAGAAGGAGAGUGAUGCG [pwkr ssNG2 2F5 2FMN.16] (Eterna round: R96, puzzle: Same State NG 2)	apparent KD of MS2 coat protein	251 nM

Task: Any idea what its apparent KD of MS2 coat protein is? The sequence is AAUAUAUUAAGUGAGGAUAUCAUAGAAAAAACAUGAGGAUCACCCAUGUGGGAAACCUGGUCGGGUGAGAAGGCACUUAAUAUAU [Samwise Clockwise 29 - Jieux - Same State 2] (Eterna round: R96, puzzle: Same State 2)
Result: 85.2 nM
